A collection of binders and their measured glycan array binding signal (z-score)
- TARGET_OF_ASSAY: Neu5Gc(a2-3)Gal(b1-3)GlcNAc
- ASSAY_COMMENT: glycan array binding signal (z-score within array); higher = stronger binding
- RECORDED_CONDITIONS: glycan notation: IUPAC condensed, linker removed
The entries come from a sample that favours the strongest signals as a whole.
A bare number is all that is needed in reply.

In the examples that follow, each entry is paired with its recorded glycan array binding signal (z-score).
binder="Mermaid2 (Stilbonema majum) (protein) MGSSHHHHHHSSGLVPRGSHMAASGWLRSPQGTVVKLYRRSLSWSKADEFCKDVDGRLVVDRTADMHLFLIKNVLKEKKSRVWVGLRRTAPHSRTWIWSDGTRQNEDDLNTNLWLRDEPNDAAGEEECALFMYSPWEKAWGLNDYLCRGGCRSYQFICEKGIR" recorded_number=-0.34
binder="SP15308B-bot-339-22-339 (Bacteroides ovatus) (protein) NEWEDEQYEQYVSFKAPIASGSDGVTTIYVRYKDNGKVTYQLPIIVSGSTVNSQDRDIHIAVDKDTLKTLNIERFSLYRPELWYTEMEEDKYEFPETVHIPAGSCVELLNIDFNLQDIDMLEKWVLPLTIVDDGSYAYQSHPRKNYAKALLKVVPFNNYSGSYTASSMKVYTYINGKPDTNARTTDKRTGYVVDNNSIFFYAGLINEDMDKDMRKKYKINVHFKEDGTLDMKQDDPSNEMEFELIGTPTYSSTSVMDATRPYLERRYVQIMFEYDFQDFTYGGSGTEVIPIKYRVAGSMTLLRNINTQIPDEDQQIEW" recorded_number=-0.652
binder="IRp60B (Homo sapiens), Q9UGN4-3 (protein) MWLPWALLLLWVPAGDHSELSQNPKQAATQSELHYANLELLMWPLQEKPAPPREVEVEYSTVASPREELHYASVVFDSNTNRIAAQRPREEEPDSDYSVIRKT" recorded_number=-0.475
binder="FBG4 (Homo sapiens), Q96EF6 (protein) MGARLSRRRLPADPSLALDALPPELLVQVLSHVPPRSLVTRCRPVCRAWRDIVDGPTVWLLQLARDRSAEGRALYAVAQRCLPSNEDKEEFPLCALARYCLRAPFGRNLIFNSCGEQGFRGWEVEHGGNGWAIEKNLTPVPGAPSQTCFVTSFEWCSKRQLVDLVMEGVWQELLDSAQIEICVADWWGARENCGCVYQLRVRLLDVYEKEVVKFSASPDPVLQWTERGCRQVSHVFTNFGKGIRYVSFEQYGRDVSSWVGHYGALVTHSSVRVRIRLS" recorded_number=-0.432
binder="FBG1 (Homo sapiens), Q9UK22 (protein) MDGDGDPESVGQPEEASPEEQPEEASAEEERPEDQQEEEAAAAAAYLDELPEPLLLRVLAALPAAELVQACRLVCLRWKELVDGAPLWLLKCQQEGLVPEGGVEEERDHWQQFYFLSKRRRNLLRNPCGEEDLEGWCDVEHGGDGWRVEELPGDSGVEFTHDESVKKYFASSFEWCRKAQVIDLQAEGYWEELLDTTQPAIVVKDWYSGRSDAGCLYELTVKLLSEHENVLAEFSSGQVAVPQDSDGGGWMEISHTFTDYGPGVRFVRFEHGGQDSVYWKGWFGARVTNSSVWVEP" recorded_number=-0.177
binder="DC-ASGPR L+GEE (Homo sapiens) (protein) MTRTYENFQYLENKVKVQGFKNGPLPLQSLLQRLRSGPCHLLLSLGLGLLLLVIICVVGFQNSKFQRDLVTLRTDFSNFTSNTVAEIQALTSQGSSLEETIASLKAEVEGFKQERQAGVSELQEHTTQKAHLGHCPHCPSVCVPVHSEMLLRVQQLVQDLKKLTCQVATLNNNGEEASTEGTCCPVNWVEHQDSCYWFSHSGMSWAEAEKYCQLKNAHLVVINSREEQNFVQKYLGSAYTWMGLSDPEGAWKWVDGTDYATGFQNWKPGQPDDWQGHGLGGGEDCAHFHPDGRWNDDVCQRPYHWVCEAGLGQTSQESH" recorded_number=-0.017

[in] I would be grateful if you could share the reported glycan array binding signal (z-score) for XL-35 (Xenopus laevis) (protein) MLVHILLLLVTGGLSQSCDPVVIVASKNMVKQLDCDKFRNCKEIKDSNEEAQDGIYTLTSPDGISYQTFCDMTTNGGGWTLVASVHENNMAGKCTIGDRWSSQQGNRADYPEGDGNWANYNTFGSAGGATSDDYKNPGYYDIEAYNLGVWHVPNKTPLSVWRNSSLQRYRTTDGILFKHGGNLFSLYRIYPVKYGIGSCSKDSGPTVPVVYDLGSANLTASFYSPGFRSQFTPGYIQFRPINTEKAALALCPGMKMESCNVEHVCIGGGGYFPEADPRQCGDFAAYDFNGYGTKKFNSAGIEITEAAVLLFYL .
[out] -0.235

[in] I would be grateful if you could share the reported glycan array binding signal (z-score) for CCL2 (Coprinopsis cinerea), B3GA02 (protein) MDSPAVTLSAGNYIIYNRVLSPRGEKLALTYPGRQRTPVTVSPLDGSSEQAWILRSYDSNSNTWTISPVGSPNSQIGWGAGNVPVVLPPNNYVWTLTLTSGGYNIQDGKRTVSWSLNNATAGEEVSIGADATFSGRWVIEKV .
[out] -0.282

[in] I would be grateful if you could share the reported glycan array binding signal (z-score) for MFG-E8 (Homo sapiens), Q08431 (protein) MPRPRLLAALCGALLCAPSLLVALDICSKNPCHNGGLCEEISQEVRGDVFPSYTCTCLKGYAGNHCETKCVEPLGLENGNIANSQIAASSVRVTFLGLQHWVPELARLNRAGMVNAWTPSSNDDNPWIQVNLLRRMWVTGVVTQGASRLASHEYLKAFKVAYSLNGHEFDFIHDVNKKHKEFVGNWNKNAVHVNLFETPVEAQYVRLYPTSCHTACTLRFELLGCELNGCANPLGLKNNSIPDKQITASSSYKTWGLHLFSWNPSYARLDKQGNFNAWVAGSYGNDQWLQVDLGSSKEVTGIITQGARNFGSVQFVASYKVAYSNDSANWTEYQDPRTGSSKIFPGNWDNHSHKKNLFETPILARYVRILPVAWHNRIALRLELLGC .
[out] -0.636
